TESTED TARGET: T1, Human EphA2 (human, UniProt P29317 24-976)
T1 construct: Endogenous EphA2 in fresh frozen human tumor tissue sections, not a recombinant protein; also called ephrin receptor A2; hEphA2
PROCEDURE SUMMARY: IHC/IF on frozen human tumor tissue: RCC-clear cell
PARAMETER: IHC score
Reply with the value as a number alone.

Query: Look up IHC score for this binder: AB-009815 (antibody, mouse IgG2a, V domains shown, Made on a mouse IgG2a framework) VH: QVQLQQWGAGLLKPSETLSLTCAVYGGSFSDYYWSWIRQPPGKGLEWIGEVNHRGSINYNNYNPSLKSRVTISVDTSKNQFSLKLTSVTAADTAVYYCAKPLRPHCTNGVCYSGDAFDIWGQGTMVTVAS VL: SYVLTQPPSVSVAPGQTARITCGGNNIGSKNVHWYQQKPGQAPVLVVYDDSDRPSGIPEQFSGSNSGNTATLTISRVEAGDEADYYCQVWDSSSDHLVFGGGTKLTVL
Response: 1
